# Experimental Protocol: Rat pharmacokinetics in plasma, non compartmental analysis
# Type: in vivo, male rats
# Details: rat, in vivo; XOS (15mg/kg), oral gavage, male rats, plasma, mean
Property Label: half-life (h)
The figure you give is taken to be in h; do not add the unit.

Fill blank: measured half-life of the molecule C[S+]([O-])CC1CN(/N=C/c2ccc([N+](=O)[O-])o2)C(=O)O1 (racemic) [Nifuratel sulfoxide, nifuratel sulfoxide] is ____.
2.13

====

# Experimental Protocol: Rat pharmacokinetics in plasma, non compartmental analysis
# Assay type: in vivo, male rats
# Details: rat, in vivo; IV (2mg/Kg), male rats, plasma, mean
Property Label: AUC(0-t)
# include the unit after the value

Find the recorded AUC(0-t) belonging to C[S+]([O-])CC1CN(/N=C/c2ccc([N+](=O)[O-])o2)C(=O)O1 (racemic) [Nifuratel sulfoxide, nifuratel sulfoxide] and report it.
700 ng·h/mL

====

# Experimental Protocol: Rat pharmacokinetics in plasma, non compartmental analysis
# Format: in vivo, male rats
# Details: male, rat, in vivo, po, 15 mg/kg
Property Label: Tmax (min)
Numeric answer only, unit min assumed.

Record request: Tmax value, item CSCC1CN(/N=C/c2ccc([N+](=O)[O-])o2)C(=O)O1 (stereo not shown)
30

====

# Experimental Protocol: Rat pharmacokinetics in plasma, non compartmental analysis
# Assay type: in vivo, male rats
# Details: rat, in vivo; XOS (15mg/kg), oral gavage, male rats, plasma, mean; read-out: Tmax (converted)
Property Label: Tmax (min)
Please respond with the number in min and leave the unit unwritten.

Consider the compound shown here: C[S+]([O-])CC1CN(/N=C/c2ccc([N+](=O)[O-])o2)C(=O)O1 (racemic) [Nifuratel sulfoxide, nifuratel sulfoxide] What is its recorded Tmax?
23

====

# Experimental Protocol: Rat pharmacokinetics in plasma, non compartmental analysis
# Assay type: in vivo, male rats
# Details: male, rat, in vivo, iv, 2 mg/kg
Property Label: concentration at 120 min (ng/mL)
Lab book: enter the figure in ng/mL, no units written.

Fill in the blank: the reported concentration at 120 min of CSCC1CN(/N=C/c2ccc([N+](=O)[O-])o2)C(=O)O1 (stereo not shown) is ____.
5

====

# Experimental Protocol: Rat pharmacokinetics in plasma, non compartmental analysis
# Format: in vivo, male rats
# Details: rat, in vivo; XOS (15mg/kg), oral gavage, male rats, plasma, mean; read-out: Cmax
Property Label: Cmax (ng/mL)
Please state the figure in ng/mL; there is no need to write the unit.

Data request, read-out Cmax, for C[S+]([O-])CC1CN(/N=C/c2ccc([N+](=O)[O-])o2)C(=O)O1 (racemic) [Nifuratel sulfoxide, nifuratel sulfoxide]
298

====

# Experimental Protocol: Rat pharmacokinetics in plasma, non compartmental analysis
# Assay type: in vivo, male rats
# Details: rat, in vivo; IV (2mg/Kg), male rats, plasma, mean
Property Label: AUC(0-inf)
Provide a numeric answer, followed by its unit.

Please give the measured AUC(0-inf) for this molecule: C[S+]([O-])CC1CN(/N=C/c2ccc([N+](=O)[O-])o2)C(=O)O1 (racemic) [Nifuratel sulfoxide, nifuratel sulfoxide]
703 ng·h/mL

====

# Experimental Protocol: Rat pharmacokinetics in plasma, non compartmental analysis
# Type: in vivo, male rats
# Details: male, rat, in vivo, iv, 2 mg/kg
Property Label: C0

Could you tell me which C0 is on file for CSCC1CN(/N=C/c2ccc([N+](=O)[O-])o2)C(=O)O1 (stereo not shown) [Nifuratel] ?
798 ng/mL
